inhibition of growth at 10 µM values for the molecules below.
Test system: HCT-15
Assay: Cytotoxicity against Homo sapiens (human) HCT15 cells assessed as growth inhibition at 1 x 10^-5 M after 48 hr by SRB assay
Format: functional
Settings: HCT-15, 48 h, read-out: GI
The reply should be a number in %, with the unit left off.

Take a look at these entries with their results.
molecule: COc1cc(/C=N/CCCN2CCN(CCC/N=C/c3ccc(O)c(OC)c3)CC2)ccc1O
reportedEndpoint: inhibition of growth at 10 µM
unit: %
assayResult: 5
//
molecule: COc1ccc(OC)c(/C=N/CCCN2CCN(CCC/N=C/c3cc(OC)ccc3OC)CC2)c1
reportedEndpoint: inhibition of growth at 10 µM
unit: %
assayResult: 7
//
molecule: O=P1(N(CCCl)CCCl)NCCCO1 (stereo not given) [CYCLOPHOSPHAMIDE ANHYDROUS]
reportedEndpoint: inhibition of growth at 10 µM
unit: %
assayResult: 7
//
molecule: COc1ccc(OC)c(/C=N/CC2CCCO2)c1 (stereo not given)
reportedEndpoint: inhibition of growth at 10 µM
unit: %
assayResult: 0

Consider the record given below.
# input Which inhibition of growth at 10 µM value is on record for O=c1[nH]cc(F)c(=O)[nH]1 ?
# output 21

* * *

Test system: HCT-15
Test: Cytotoxicity against Homo sapiens (human) HCT15 cells assessed as growth inhibition at 1 x 10^-5 M after 48 hr by SRB assay
Type: functional
Details: HCT-15, 48 h, read-out: GI
Documented inhibition of growth at 10 µM across a set of compounds
Report the figure in % without appending any unit label.

compound: COc1ccc(OC)c(/C=N/c2n[nH]c(/N=C/c3cc(OC)ccc3OC)n2)c1
inhibition of growth at 10 µM, %: 5

compound: COc1ccc(OC)c(/C=N/CCCn2ccnc2)c1
inhibition of growth at 10 µM, %: 3

compound: COc1cc(/C=N/CCN2CCNCC2)ccc1O
inhibition of growth at 10 µM, %: 4

compound: COc1cc(/C=N/c2n[nH]c(/N=C/c3ccc(O)c(OC)c3)n2)ccc1O
inhibition of growth at 10 µM, %: 4

compound: C(=N\CCN1CCNCC1)/c1ccco1
inhibition of growth at 10 µM, %: 5

# input Quick one: inhibition of growth at 10 µM for C(=N\CCCn1ccnc1)/c1ccco1 ?
# output 1

# input Recorded inhibition of growth at 10 µM for COc1cc(/C=N/CC2CCCO2)ccc1O (stereo not drawn) , please?
# output 24

# input Please give the measured inhibition of growth at 10 µM for this compound: COc1ccc(OC)c(/C=N/CCN2CCNCC2)c1
# output 4

* * *

Test system: HCT-15
Test: Cytotoxicity against Homo sapiens (human) HCT15 cells assessed as growth inhibition at 1 x 10^-5 M after 48 hr by SRB assay
Assay type: functional
Conditions: HCT-15, 48 h, read-out: GI
Starred links: 1 amine or outer side, 2 acyl side, 3 side chain; linkers in the order of their positions; H or OH if unused. Positions of bridges follow the written chain, without caps; N, C: chain ends. Non-standard residues stand in square brackets, D forms with d. Residues, ends and D or L forms follow the SMILES beside them. Chains are numbered I, II in the order given. Actinocin(1to9) = Cc1c2oc3c(C)ccc(C(=O)[*:2])c3nc-2c(C(=O)[*:1])c(N)c1=O; NMeV = CN[C@H](C(=O)O)C(C)C; Sar = CNCC(=O)O
I would appreciate it if you labelled entries True when inhibition of growth at 10 µM is 5% or higher, otherwise False.

Solved cases below.
compound: COc1cc(/C=N/CCCn2ccnc2)ccc1O
targetOrSystem: HCT-15
labelClass: False

compound: Cc1c2oc3c(C)ccc(C(=O)N[C@@H]4C(=O)N[C@H](C(C)C)C(=O)N5CCC[C@H]5C(=O)N(C)CC(=O)N(C)[C@@H](C(C)C)C(=O)O[C@@H]4C)c3nc-2c(C(=O)N[C@@H]2C(=O)N[C@H](C(C)C)C(=O)N3CCC[C@H]3C(=O)N(C)CC(=O)N(C)[C@@H](C(C)C)C(=O)O[C@@H]2C)c(N)c1=O [DACTINOMYCIN] (I: T[dV]P[Sar][NMeV] / II: T[dV]P[Sar][NMeV]; ester I:1-I:C, II:1-II:C; linker I:N-II:N via Actinocin(1to9))
targetOrSystem: HCT-15
labelClass: True

compound: C(=N\CCCN1CCN(CCC/N=C/c2ccco2)CC1)/c1ccco1
targetOrSystem: HCT-15
labelClass: True

compound: C(=N\CC1CCCO1)/c1ccco1 (stereo unspecified)
targetOrSystem: HCT-15
labelClass: False

Now examine the next entry.
# input Is reported inhibition of growth at 10 µM greater than or equal to 5% here: C(=N\c1n[nH]c(/N=C/c2ccco2)n1)/c1ccco1
# output False
